These entries and their values trace back to the supplement of paper PMC12420376.

- System: OVCAR8
- EXPERIMENTAL_DETAILS: drug sensitivity score (DSS2) on cancer cell count; higher = more sensitive; extreme values may be limits of the assay
- CONDITION: co-cultured fibroblast: WI38; 72 h
MEASURED_QUANTITY: drug sensitivity score

Answered examples (2):
# MOLECULE, drug sensitivity score
rows = [
    ("O=c1[nH]cc(F)c(=O)[nH]1", "1.4 DSS"),
    ("CN(C)C(=O)c1ccc(S(=O)(=O)c2ccc(NC(=O)[C@@](C)(O)C(F)(F)F)c(Cl)c2)cc1", "0 DSS"),
]

Q. Tell me drug sensitivity score reported for `CC(=O)c1cnc2ccc(-c3cc(Cl)c(O)c(Cl)c3)nc2c1N[C@H]1CC[C@H](CN(C)C)CC1`
A. 16.1 DSS

Q. Tell me drug sensitivity score reported for Cn1cc(C2=Nc3cc(NC(=O)C(N)C4CCCCC4)cc4c3C2=CNNC4=O)cn1 (stereo not drawn)
A. 13 DSS
